B1: E3 ubiquitin-protein ligase Midline-1, residues 172 to 214; numbered along this chain, O15344 (parent)
chain: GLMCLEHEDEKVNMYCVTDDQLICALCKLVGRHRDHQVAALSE

Variants of: B1
Experiment: abundance fitness (aPCA) (normalised: wild type 0, dead -1); higher = more abundant; growth selection in yeast, the domain comes from the species named
Conditions: Homo sapiens
Think of -0.3 as a floor: if abundance fitness stands on it or above, it is 1 (yes); beneath it, 0 (no).

• GLMCLEHEDEKVNMYCVTDDQLICALCKLVGRYRDHQVAALSE = 0 (no)
• GLMVLEHEDEKVNMYCVTDDQLICALCKLVGRHRDHQVAALSE = 0 (no)
• GLMCLEHEDEKVNMHCVTDDQLICALCKLVGRHRDHQVAALSE = 1 (yes)
• GLMCLEHEDEKVNMYCVTDDQLICALCKLVERHRDHQVAALSE = 1 (yes)
• GLMCLEHEDEKVNMYCVTDDQLTCALCKLVGRHRDHQVAALSE = 1 (yes)
• GLMCLEHEDEKVNMYCVTDDQLICALCKLVGRHRDHQVAALYE = 0 (no)
• GLMCLEHEDEKVNMYCVTDDDLICALCKLVGRHRDHQVAALSE = 1 (yes)
• GLMCLEHEDEKVDMYCVTDDQLICALCKLVGRHRDHQVAALSE = 1 (yes)
• GLMWLEHEDEKVNMYCVTDDQLICALCKLVGRHRDHQVAALSE = 0 (no)
• GLMCLEHEDEKANMYCVTDDQLICALCKLVGRHRDHQVAALSE = 1 (yes)
• GLMCLEHEDEKVNMYCVTDDQLICALCKLVGEHRDHQVAALSE = 1 (yes)
• GAMCLEHEDEKVNMYCVTDDQLICALCKLVGRHRDHQVAALSE = 1 (yes)
• GLMCLEHEDEKVNMYCVTDDQLICALCKLVGRHRDHQVAACSE = 1 (yes)
• GLMCLEMEDEKVNMYCVTDDQLICALCKLVGRHRDHQVAALSE = 0 (no)
• GLMCLEHEDEKVNMYCVTDDQLICALCKLVGIHRDHQVAALSE = 1 (yes)
• ALMCLEHEDEKVNMYCVTDDQLICALCKLVGRHRDHQVAALSE = 0 (no)
• GLACLEHEDEKVNMYCVTDDQLICALCKLVGRHRDHQVAALSE = 1 (yes)
• GLMCLEHEDCKVNMYCVTDDQLICALCKLVGRHRDHQVAALSE = 1 (yes)
• GLMCLEHEDEKVNMYCVTDDQLICALCKLVCRHRDHQVAALSE = 1 (yes)
• GLMCLEHEDEKVNMYCVTDDQLICALCELVGRHRDHQVAALSE = 1 (yes)
• GLMCLEHEDEKVNMYCVTDDQLITALCKLVGRHRDHQVAALSE = 0 (no)
• GLMCLEHEDEKVNMYCVTDDQLIQALCKLVGRHRDHQVAALSE = 0 (no)
• GLMCLEHEDEKVNMYCVTDDQLICALQKLVGRHRDHQVAALSE = 0 (no)
• GLMCLEHEDEKVNMYCVTDDQLICALCKLVGRHRDHQVAALLE = 0 (no)
• GLMCLEHEDEKVNMYCVTDDQLICALCKLVGRHRDHQVPALSE = 0 (no)
• GLDCLEHEDEKVNMYCVTDDQLICALCKLVGRHRDHQVAALSE = 1 (yes)
• GLMCLEHEIEKVNMYCVTDDQLICALCKLVGRHRDHQVAALSE = 1 (yes)
• GLMCLEHEDEKVNMYCVTDDQLICALCKLEGRHRDHQVAALSE = 1 (yes)
• GLMCLEHEDEKVNMYCVTDDHLICALCKLVGRHRDHQVAALSE = 1 (yes)

The reported measurements were obtained from the Human Domainome abundance scans (Beltran et al. 2025).
